From: paper PMC9356065

# Assay Explanation: Scavenging of diphenyl-picryl-hydrazyl radicals (DPPH)
# Condition Parameters: screening concentration 250 µM
Can you tell me DPPH %Inh for the items I'm about to list?
Please report the result as a number followed by the unit.

Entry COc1c2occc2c(NC(=O)c2ccc(Br)cc2)c2ccc(=O)oc12 [3c] — recorded DPPH %Inh = 6%

Entry COc1c2occc2c(NC(=O)c2ccco2)c2ccc(=O)oc12 [3g] — recorded DPPH %Inh = 3%

Entry COc1c2occc2c(NC(=O)c2cccs2)c2ccc(=O)oc12 [3h] — recorded DPPH %Inh = 6%

Entry COc1c2occc2c(NC(=O)c2ccccc2)c2ccc(=O)oc12 [3a] — recorded DPPH %Inh = 6%

Entry CCC(=O)Nc1c2ccoc2c(OC)c2oc(=O)ccc12 [3j] — recorded DPPH %Inh = 2%

Entry COc1c2occc2c(NC(=O)C(C)(C)C)c2ccc(=O)oc12 [3l] — recorded DPPH %Inh = 1%

Entry COc1c2occc2c(NC(=O)C(C)C)c2ccc(=O)oc12 [3k] — recorded DPPH %Inh = 2%

Entry COc1c2occc2c(NC(=O)c2ccc(C(F)(F)F)cc2)c2ccc(=O)oc12 [3d] — recorded DPPH %Inh = 7%

Entry COc1ccc(C(=O)Nc2c3ccoc3c(OC)c3oc(=O)ccc23)cc1 [3e] — recorded DPPH %Inh = 4%

Entry CCCCCC(=O)N(C(=O)CCCCC)c1c2ccoc2c(OC)c2oc(=O)ccc12 [3m] — recorded DPPH %Inh = 1%

Entry COc1c2occc2c([N+](=O)[O-])c2ccc(=O)oc12 [compound 1] — recorded DPPH %Inh = 5%

Entry COc1c2occc2c(NC(=O)c2ccc(F)cc2)c2ccc(=O)oc12 [3b] — recorded DPPH %Inh = 3%
